Molecular target: dopamine D2 receptors (Homo sapiens (Human))
Sequence (P14416 whole entry, the tested form may be a part): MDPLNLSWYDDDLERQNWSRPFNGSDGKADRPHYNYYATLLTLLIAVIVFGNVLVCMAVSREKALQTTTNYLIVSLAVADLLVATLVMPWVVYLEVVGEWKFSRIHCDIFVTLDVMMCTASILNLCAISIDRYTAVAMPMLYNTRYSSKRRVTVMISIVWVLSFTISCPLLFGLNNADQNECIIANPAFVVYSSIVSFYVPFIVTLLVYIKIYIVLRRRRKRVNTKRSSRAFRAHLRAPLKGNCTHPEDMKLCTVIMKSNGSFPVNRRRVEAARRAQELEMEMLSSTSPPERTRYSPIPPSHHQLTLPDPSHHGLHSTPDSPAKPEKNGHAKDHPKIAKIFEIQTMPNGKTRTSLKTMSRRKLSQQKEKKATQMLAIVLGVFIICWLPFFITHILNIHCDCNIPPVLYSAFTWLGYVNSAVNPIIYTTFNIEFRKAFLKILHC
Assay: Dopamine D2 receptor β-arrestin2 BRET (recruitment);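 also: cells co-expressing Rluc-fused D2 receptor, GRK2 and GFP2-fused β-arrestin2, BRET read with coelenterazine 400a after adding drug over a concentration series, in duplicate wells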
Assay type: cell-based
Conditions: read-out: β-arrestin2 BRET (Emax %)
Decision: Emax beneath 30% gives satisfied; Emax meeting or exceeding 30% gives not satisfied.

| Compound | Cat |
| --- | --- |
| O=c1ccc2ccc(OCCCCN3CCN4c5cccc6scc(c56)CC4C3)cc2[nH]1 (centres unmarked) | not satisfied |
| O=C(CN1CCN2c3cccc4scc(c34)CC2C1)c1ccc(F)cc1 (centres unmarked) | satisfied |
| O=C1c2ccccc2CN1CCCCN1CCN2c3cccc4scc(c34)CC2C1 (centres unmarked) | satisfied |
| OCCN1CCN2c3cccc4scc(c34)CC2C1 (centres unmarked) | satisfied |
| c1cc2c3c(csc3c1)CC1CN(CCCCOc3ccc4scnc4c3)CCN21 (centres unmarked) | not satisfied |
| O=C(N[C@H]1CC[C@H](CCN2CCN3c4cccc5scc(c45)CC3C2)CC1)N1CCCC1 (some centres unmarked) | not satisfied |
| COc1cc2c(cc1OC)C(=O)N(CCCCN1CCN3c4cccc5scc(c45)CC3C1)C2 (centres unmarked) | not satisfied |
| O=C1[C@H]2CCCC[C@H]2C(=O)N1CCCCN1CCN2c3cccc4scc(c34)CC2C1 (some centres unmarked) | satisfied |
| CN(C)C(=O)N[C@H]1CC[C@H](CCN2CCN3c4cccc5scc(c45)CC3C2)CC1 (some centres unmarked) | not satisfied |
| c1csc(CCN2CCN3c4cccc5scc(c45)CC3C2)c1 (centres unmarked) | satisfied |

In: Just wondering, is Emax of c1cc2c3c(csc3c1)CC1CN(CCCOc3ccc4c(c3)OCO4)CCN21 (centres unmarked) below 30%?
Out: not satisfied

In: Just wondering, is Emax of c1ccc(OCCN2CCN3c4cccc5scc(c45)CC3C2)cc1 (centres unmarked) below 30%?
Out: satisfied

In: Just wondering, is Emax of O=C1CCc2ccc(OCCCN3CCN4c5cccc6scc(c56)CC4C3)cc2N1 (centres unmarked) below 30%?
Out: not satisfied

In: Just wondering, is Emax of O=c1ccc2ccc(OCCCN3CCN4c5cccc6scc(c56)CC4C3)cc2[nH]1 (centres unmarked) below 30%?
Out: not satisfied

In: Just wondering, is Emax of O=C1c2ccccc2CCCN1CCCCN1CCN2c3cccc4scc(c34)CC2C1 (centres unmarked) below 30%?
Out: not satisfied

In: Just wondering, is Emax of O=C(N[C@H]1CC[C@H](CCN2CCN3c4cccc5scc(c45)CC3C2)CC1)N1CCCCC1 (some centres unmarked) below 30%?
Out: not satisfied

Source of measurements: patent US20240383913A1
